# Target desc: Cytochrome P450 2C9 (Homo sapiens)
# Method: Cytochrome panel assay with activity outcomes
# Stated conditions: recombinant CYP, pro-luciferin dealkylation, luminescence, p450-cyp2c9; series mostly up to 57.1 µM
In all, about 16,000 compounds went through this assay and about 4,000 (25%) were called active. Inconclusive results (about 26%) are left out. Calls follow the shape of the dose curve; as a rule, active = well fitted curve in the direction sought with a large enough effect; inconclusive = small, poorly fitted or top-dose-only effect, or effect the other way; inactive = no such curve, though single readings can be large or run the other way. These entries were drawn from the full list.
Outcomes: label 1 for active, label 0 for inactive

Compound: COC(=O)c1ccc(C#CC(NP(=O)(c2ccccc2)c2ccccc2)c2ccccc2)cc1 (stereo unspecified)
Target desc: Cytochrome P450 2C9 (Homo sapiens)
Assigned class: label 1
--
Compound: O=C(O)c1cc2c(o1)CCC/C2=N\O
Target desc: Cytochrome P450 2C9 (Homo sapiens)
Assigned class: label 0
--
Compound: COC(=O)c1ccc(C23CC2(C(NP(=O)(c2ccccc2)c2ccccc2)c2ccccc2)C3)cc1 (stereo unspecified)
Target desc: Cytochrome P450 2C9 (Homo sapiens)
Assigned class: label 1
--
Compound: CC(=O)N1CCC[C@@]2(CCN(Cc3nccs3)C2)C1
Target desc: Cytochrome P450 2C9 (Homo sapiens)
Assigned class: label 0
--
Compound: C[C@@H](C1=C(CCN(C)C)Cc2ccccc21)c1ccccn1
Target desc: Cytochrome P450 2C9 (Homo sapiens)
Assigned class: label 1
--
Compound: COC(=O)c1ccc(NC(=O)C2CCCCC2C(=O)O)cc1 (stereo unspecified)
Target desc: Cytochrome P450 2C9 (Homo sapiens)
Assigned class: label 0
